target: calcium receptor (CasR) (Homo sapiens); experiment: FLIPR Assay for Evaluating the Potency and Selectivity of Test Compounds; conditions: HEK 293 cells expressing CasR; 30 minutes pre-incubation; stimulation by 1.7 mM Ca2+; read 42 seconds after stimulation
Entries and their log10(IC50)
On a log10 scale: recorded IC50, unit nM.

# count of solved cases: 4
CN(C)c1nccc2nc(-c3ccccc3O)n(CCc3ccccc3)c(=O)c12 : 4.14
CC(Cc1ccccc1F)n1c(-c2ncccc2O)nc2ccnc(C(F)(F)F)c2c1=O (single isomer, unassigned) [Example 6a] : 1.70
Nc1cccnc1-c1nc2ccnc(C(F)(F)F)c2c(=O)n1CCc1ccccc1 : 2.89
O=c1c2c(C(F)(F)F)nccc2nc(-c2cscn2)n1CCc1ccccc1F : 3.19

For this molecule ( `CC(C)Oc1nccc2nc(-c3ccccc3O)n(CCc3ccccc3)c(=O)c12` ), measured log10(IC50) is 2.58

Recorded result, `COc1ccccc1CCn1c(-c2cscn2)nc2ccnc(C(F)(F)F)c2c1=O` , log10(IC50): 4.37

Briefly, log10(IC50) measured for `COc1c(F)cccc1CCn1c(-c2ncccc2O)nc2ccnc(C(F)(F)F)c2c1=O` : 3.27

The molecule identified as `O=c1c2c(C(F)(F)F)nccc2nc(-c2ncccc2C(F)(F)F)n1CCC1CCCCC1` registered its log10(IC50) at 3.40

----------
target: calcium receptor (CasR) (Homo sapiens); assay: FLIPR Assay for Evaluating the Potency and Selectivity of Test Compounds; conditions: HEK 293 cells expressing CasR; 30 minutes pre-incubation; stimulation by 1.7 mM Ca2+; read 42 seconds after stimulation
OUTCOME_MEASURE: pIC50
As a rule, pIC50 stands for the negative log10 of the concentration, concentration in M.

Here is how some compounds turned out for pIC50.
O=c1c2c(OC3CCC3)nccc2nc(-c2ccccc2O)n1CCc1ccccc1 : 6.28
C[C@H](Cc1ccccc1)n1c(-c2ccccc2O)nc2ccnc(C(F)(F)F)c2c1=O : 7.22
O=c1c2c(C(F)(F)F)nccc2nc(-c2ccccc2O)n1CCc1ccc(F)c(F)c1 : 6.80
CN(C)c1ccc(-c2nccc3nc(-c4ccccc4O)n(CCc4ccccc4)c(=O)c23)cn1 : 5.65

// assay calcium receptor (CasR) (Homo sapiens), entry C[C@@H](CC1CCCCC1)n1c(-c2ncccc2O)nc2ccnc(C(F)(F)F)c2c1=O [Example 48b] , pIC50 value = 5.77

Kindly note: calcium receptor (CasR) (Homo sapiens), `Cc1nccc2nc(-c3ccccc3O)n(CCc3ccccc3)c(=O)c12` , pIC50 value reported: 5.52

Value sought: pIC50, system calcium receptor (CasR) (Homo sapiens), item `O=c1c2c(C(F)(F)F)nccc2nc(-c2ncccc2O)n1CCc1cccc(F)c1F` . Result: 6.34

----------
target: calcium receptor (CasR) (Homo sapiens, UniProt P41180); assay: FLIPR Assay for Evaluating the Potency and Selectivity of Test Compounds; settings: HEK 293 cells expressing CasR; 30 minutes pre-incubation; stimulation by 1.7 mM Ca2+; read 42 seconds after stimulation
Sequence (P41180 20-1078): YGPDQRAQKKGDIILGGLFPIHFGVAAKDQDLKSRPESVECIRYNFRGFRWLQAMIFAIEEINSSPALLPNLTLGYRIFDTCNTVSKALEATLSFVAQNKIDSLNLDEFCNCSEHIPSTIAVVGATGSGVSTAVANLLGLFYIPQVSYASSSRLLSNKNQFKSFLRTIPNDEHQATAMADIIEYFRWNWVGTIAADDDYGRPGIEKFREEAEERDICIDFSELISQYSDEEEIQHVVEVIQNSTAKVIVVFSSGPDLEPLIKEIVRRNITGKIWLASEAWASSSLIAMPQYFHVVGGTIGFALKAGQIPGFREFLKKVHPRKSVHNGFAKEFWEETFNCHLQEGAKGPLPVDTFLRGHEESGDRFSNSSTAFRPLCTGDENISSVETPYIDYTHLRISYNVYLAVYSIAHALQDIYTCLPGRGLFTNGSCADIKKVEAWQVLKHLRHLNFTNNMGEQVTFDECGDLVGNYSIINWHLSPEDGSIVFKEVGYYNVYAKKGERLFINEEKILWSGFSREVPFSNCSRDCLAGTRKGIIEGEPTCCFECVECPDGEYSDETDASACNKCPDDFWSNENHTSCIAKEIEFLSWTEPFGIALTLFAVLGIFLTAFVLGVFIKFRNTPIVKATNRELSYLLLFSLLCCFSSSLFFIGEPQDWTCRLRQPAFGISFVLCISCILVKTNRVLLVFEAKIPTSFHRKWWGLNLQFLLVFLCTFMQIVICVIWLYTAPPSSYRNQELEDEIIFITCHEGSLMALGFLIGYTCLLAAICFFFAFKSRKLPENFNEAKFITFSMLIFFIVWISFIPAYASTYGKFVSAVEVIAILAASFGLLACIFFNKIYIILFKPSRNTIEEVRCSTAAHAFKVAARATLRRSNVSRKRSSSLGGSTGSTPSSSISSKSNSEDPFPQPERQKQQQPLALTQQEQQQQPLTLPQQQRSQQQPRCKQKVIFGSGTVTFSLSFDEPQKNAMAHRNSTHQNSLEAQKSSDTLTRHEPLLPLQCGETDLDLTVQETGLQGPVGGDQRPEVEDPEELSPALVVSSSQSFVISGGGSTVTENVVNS
Just a reminder that ties go to Not fulfilled: only IC50 strictly below 500 nM counts as Fulfilled.

Solved cases (5 shown):
CC(C)CCn1c(-c2ncccc2O)nc2ccnc(C(F)(F)F)c2c1=O : Not fulfilled
O=c1c2c(C(F)(F)F)nccc2nc(-c2ncccc2C(F)F)n1CCc1ccccc1 : Fulfilled
C[C@@H](Cc1ccccc1)n1c(-c2ccccc2O)nc2ccnc(C(F)(F)F)c2c1=O : Fulfilled
C[C@H](CC1CCCCC1)n1c(-c2ncccc2O)nc2ccnc(C(F)(F)F)c2c1=O [Example 48a] : Fulfilled
CCC(Cc1ccccc1F)n1c(-c2ncccc2O)nc2ccnc(C(F)(F)F)c2c1=O (centres unmarked) : Not fulfilled

Just wondering, is IC50 of `C[C@H](Cc1ccccc1)n1c(-c2ncccc2C(F)(F)F)nc2ccnc(C(F)(F)F)c2c1=O` below 500 nM?
Not fulfilled

Lab note: IC50 threshold 500 nM. Does this molecule come in strictly under it? `COc1nccc2nc(-c3ccccc3O)n(CCc3ccccc3)c(=O)c12`
Not fulfilled

----------
target: calcium receptor (CasR) (Homo sapiens); assay: FLIPR Assay for Evaluating the Potency and Selectivity of Test Compounds; details: HEK 293 cells expressing CasR; 30 minutes pre-incubation; stimulation by 1.7 mM Ca2+; read 42 seconds after stimulation
OUTCOME_MEASURE: pIC50
To interpret pIC50, take it as minus log10 of a concentration measured in moles per litre.

Sample records with pIC50:
O=c1c2c(OCC(F)(F)F)nccc2nc(-c2ccccc2O)n1CCc1ccccc1 [Example 36] : 6.22
CC(=O)Nc1cccnc1-c1nc2ccnc(C(F)(F)F)c2c(=O)n1CCc1ccccc1F [Example 52] : 6.64
CNc1nccc2nc(-c3ccccc3O)n(CCc3ccccc3)c(=O)c12 [Example 16] : 4.97

Entry COc1ccccc1CCn1c(-c2ccccc2O)nc2ccnc(C(F)(F)F)c2c1=O [Example 55] — recorded pIC50 = 6.14

Looking up O=c1c2c(C(F)(F)F)nccc2nc(-c2ccccc2O)n1CCc1ccccc1F [Example 7] , I see its pIC50 listed as 6.89

Entry under test: COc1cccc(F)c1CCn1c(-c2ncccc2O)nc2ccnc(C(F)(F)F)c2c1=O [Example 42] . Its pIC50 was 5.95

Lookup result for O=c1c2c(C(F)(F)F)nccc2nc(-c2ccccc2C(F)F)n1CCc1ccccc1 [Example 79] ; measured pIC50: 6.41

----------
Reported values of pIC50 for individual entries
Target: calcium receptor (CasR) (Homo sapiens)
Experiment: FLIPR Assay for Evaluating the Potency and Selectivity of Test Compounds
Settings: HEK 293 cells expressing CasR; 30 minutes pre-incubation; stimulation by 1.7 mM Ca2+; read 42 seconds after stimulation
Description: FLIPR Assay for Evaluating the Potency and Selectivity of Test Compounds Human kidney cell (HEK 293) expressing the calcium receptor (CasR) are used to detect antagonists of the receptor using Fluorometric imaging plate reader (FLIPR, Molecular Devices, Sunnyvale Calif.). […] A fluorescent indicator (Fluo-4) is internalized by the cells from growth media and interacts with calcium released into the cytosol to provide a means of quantifying intracellular Ca^2+ levels and receptor agonism/antagonism. […]
Hey, just a heads up that pIC50 is the negative log base 10 of the concentration in molar.

CS(=O)(=O)Nc1cccnc1-c1nc2ccnc(C(F)(F)F)c2c(=O)n1CCc1ccccc1 : 4.21

Moving on to another compound below.
`O=C(Nc1cccnc1-c1nc2ccnc(C(F)(F)F)c2c(=O)n1CCc1ccccc1F)C(F)(F)F` has a reported pIC50 of 6.03

----------
Biological target: calcium receptor (CasR) (Homo sapiens, UniProt P41180)
Assay: FLIPR Assay for Evaluating the Potency and Selectivity of Test Compounds
Conditions: HEK 293 cells expressing CasR; 30 minutes pre-incubation; stimulation by 1.7 mM Ca2+; read 42 seconds after stimulation
Source text: FLIPR Assay for Evaluating the Potency and Selectivity of Test Compounds Human kidney cell (HEK 293) expressing the calcium receptor (CasR) are used to detect antagonists of the receptor using Fluorometric imaging plate reader (FLIPR, Molecular Devices, Sunnyvale Calif.). […] A fluorescent indicator (Fluo-4) is internalized by the cells from growth media and interacts with calcium released into the cytosol to provide a means of quantifying intracellular Ca^2+ levels and receptor agonism/antagonism. […]
Mark true (1) only when IC50 stays strictly below 1000 nM. Values equal to the cut-off are false (0).

CC(C)COc1nccc2nc(-c3ccccc3O)n(CCc3ccccc3)c(=O)c12 : false (0)
O=c1c2c(C(F)(F)F)nccc2nc(-c2ncccc2O)n1CCc1ccc(F)c(F)c1 : true (1)
C[C@H](Cc1ccccc1)n1c(-c2ncc[nH]2)nc2ccnc(C(F)(F)F)c2c1=O : true (1)
N#Cc1ccccc1-c1nc2ccnc(C(F)(F)F)c2c(=O)n1CCC1CCCCC1 : false (0)
CC1(COc2nccc3nc(-c4ccccc4O)n(CCc4ccccc4)c(=O)c23)CC1 : false (0)

For CC(Cc1ccccc1F)n1c(-c2ncccc2O)nc2ccnc(C(F)(F)F)c2c1=O (racemic) [Example 6] , is the recorded IC50 below the cut-off of 1000 nM?
true (1)

Hello, I'm reviewing records and need to know if IC50 of `CC(C)Nc1nccc2nc(-c3ccccc3O)n(CCc3ccccc3)c(=O)c12` is below 1000 nM. Could you check?
false (0)

Please check: IC50 for `O=c1c2c(-c3ccccc3)nccc2nc(-c2ccccc2O)n1CCc1ccccc1` , strictly under 1000 nM or not?
false (0)

Regarding `N#Cc1ccccc1-c1nc2cccc(C(F)(F)F)c2c(=O)n1CCc1ccccc1F` , kindly confirm whether its IC50 is beneath 1000 nM.
true (1)

For `O=c1c2c(C(F)(F)F)nccc2nc(-c2cccc(F)c2O)n1CCc1ccccc1` , is the recorded IC50 below the cut-off of 1000 nM?
true (1)

Decide: IC50 of `O=c1c2c(C(F)(F)F)nccc2nc(-c2ncccc2C(F)(F)F)n1CCc1ccccc1` strictly below 1000 nM?
false (0)

Confirm or reject: IC50 of `O=c1c2c(C(F)(F)F)nccc2nc(-c2ncccc2O)n1CCc1ccc(F)cc1F` lies strictly below 1000 nM
true (1)

hey, is IC50 for C[C@@H](Cc1ccc(F)c(F)c1)n1c(-c2ncccc2O)nc2ccnc(C(F)(F)F)c2c1=O [Example 37b] lower than 1000 nM or not?
false (0)

Record `O=c1c2c(Cc3ccccc3)nccc2nc(-c2ccccc2O)n1CCc1ccccc1` : is its IC50 strictly below 1000 nM?
false (0)
